Sourced from paper PMC9482650

Target: Inadl_8, Q8NI35
Sequence (Q8NI35 1425-1530): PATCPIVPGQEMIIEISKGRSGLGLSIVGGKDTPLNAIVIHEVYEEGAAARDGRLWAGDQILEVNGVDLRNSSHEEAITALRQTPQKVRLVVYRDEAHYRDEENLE
Test: holdup assay
Set-up: key: below the threshold = too weak to quantify, mostly under pKd 3.1 to 4
Details: plain residues with an end cap or a label only (N-terminal biotin on a linker: ado-ado)
assay.endpoint: pKd

>  <binder>
QKNKDKEYYV [NRXN3_rs746444206, Q9Y4C0]

>  <assay.endpoint>
pKd

>  <result>
below the threshold

$$$$
>  <binder>
EEPEERHTEL [CES2, O00748]

>  <assay.endpoint>
pKd

>  <result>
below the threshold

$$$$
>  <binder>
GFGEERESIL [KIDINS220, Q9ULH0]

>  <assay.endpoint>
pKd

>  <result>
below the threshold

$$$$
